Test system: HT-29
Measurement description: NCI tumour cell line growth inhibition, 48 h
Active and inactive are the calls of the source. No stated cut-off is given here; in the data, active = GI50 up to about 1.1 µM and inactive = higher.
Some compounds, each annotated with its measured GI50.

Look over these answered cases.
COc1ccc2c(c1)OCC1Cc3cc4c(cc3OC21)OCO4 (configuration not stated): 35.1 µM (inactive)
O=C(c1ccc(Cl)cc1Cl)C1[C@H]2C(=O)N(c3ccc(Cc4ccc(N5C(=O)[C@@H]6ON(c7ccccc7)C(C(=O)c7ccc(Cl)cc7Cl)[C@@H]6C5=O)cc4)cc3)C(=O)[C@H]2ON1c1ccccc1 (some centres not stated): > 50 µM (inactive)
COC(=O)C[C@H](CCSC)NC(=O)C[C@H](CCSC)NC(=O)C[C@H](CCSC)NC(=O)OC(C)(C)C: > 100 µM (inactive)
C=C1C(=O)O[C@H]2[C@H]3O[C@@H](C[C@@H]12)[C@@]1(C)CC[C@H](O1)C(C)=CCC[C@H]3C: 1.34 µM (inactive)
C=CCC(NCc1ccccc1)[C@H](OCc1ccccc1)[C@@H]1COC(C)(C)O1 (some centres not stated): 11.7 µM (inactive)

Please give the measured GI50 for this compound: "NCCNc1ncnc2ccc(Cl)cc12"
66.8 µM (inactive)

Given the entry CO[C@]12CC(=O)C3(C(C[C@H]4CC5CC=C6C[C@@H](OC(C)=O)CC[C@]6(OC(C)=O)C5C[C@@]43C)C1)C1C[C@H]3[C@@H]4CC=C5C[C@@H](OC(C)=O)CC[C@]5(OC(C)=O)[C@H]4CC[C@]3(C)C12 (some centres not stated) , report its measured GI50.
16.1 µM (inactive)
